Recorded ΔH for the following compounds
molecular target: pVHL19 (VCB complex: VHL with Elongin B and Elongin C) (Homo sapiens, UniProt P40337); assay: ITC titration against VCB, short VHL isoform; format: binding; settings: ITC, pVHL19
Sequence (P40337 54-213): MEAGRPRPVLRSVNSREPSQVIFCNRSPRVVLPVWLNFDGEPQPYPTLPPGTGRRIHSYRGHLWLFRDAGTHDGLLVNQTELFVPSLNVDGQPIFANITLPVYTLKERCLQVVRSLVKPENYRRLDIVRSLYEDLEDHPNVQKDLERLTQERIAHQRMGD
Sequence (Q15370 1-104 partner limits assumed): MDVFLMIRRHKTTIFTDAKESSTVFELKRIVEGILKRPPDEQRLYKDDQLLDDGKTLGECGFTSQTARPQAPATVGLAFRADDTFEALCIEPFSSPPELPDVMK
Sequence (Q15369 17-112 partner limits assumed): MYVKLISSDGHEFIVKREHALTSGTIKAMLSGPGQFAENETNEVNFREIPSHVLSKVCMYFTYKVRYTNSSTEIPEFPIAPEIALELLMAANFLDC
State just the number; it will be interpreted in kcal/mol.

Cc1ncsc1-c1ccc(CNC(=O)[C@@H]2C[C@@H](O)CN2C(=O)[C@@H](NC(=O)COCCOCCOCCOCCOCCOc2cc(-c3scnc3C)ccc2CNC(=O)[C@@H]2C[C@@H](O)CN2C(=O)[C@@H](NC(=O)C2(C#N)CC2)C(C)(C)C)C(C)(C)C)cc1; -6.4

(Q) Value lookup for ΔH; key = Cc1ncsc1-c1ccc(CNC(=O)[C@H]2C[C@@H](O)CN2C(=O)[C@H](NC(=O)COCCOCCOCCOCCOCC(=O)N[C@H](C(=O)N2C[C@H](O)C[C@H]2C(=O)NCc2ccc(-c3scnc3C)cc2)C(C)(C)C)C(C)(C)C)cc1
(A) -6.23

(Q) Value lookup for ΔH; key = CC(=O)N[C@H](C(=O)N1C[C@H](O)C[C@H]1C(=O)NCc1ccc(-c2scnc2C)cc1OCCOCCOCCOCCOCCOc1cc(-c2scnc2C)ccc1CNC(=O)[C@@H]1C[C@@H](O)CN1C(=O)[C@@H](NC(C)=O)C(C)(C)C)C(C)(C)C
(A) -12.6

(Q) Value lookup for ΔH; key = Cc1ncsc1-c1ccc(CNC(=O)[C@@H]2C[C@@H](O)CN2C(=O)[C@@H](NC(=O)COCCOCCOCCOCCOCCOCC(=O)N[C@H](C(=O)N2C[C@H](O)C[C@H]2C(=O)NCc2ccc(-c3scnc3C)cc2)C(C)(C)C)C(C)(C)C)cc1
(A) -12.3

----------
molecular target: pVHL19 (VCB complex: VHL with Elongin B and Elongin C) (Homo sapiens); experiment: ITC titration against VCB, short VHL isoform; assay type: binding; conditions: ITC, pVHL19
RESULT_TYPE: −TΔS (kcal/mol)
State just the number; it will be interpreted in kcal/mol.

Cc1ncsc1-c1ccc(CNC(=O)[C@@H]2C[C@@H](O)CN2C(=O)[C@@H](NC(=O)COCCOCCOCCOCCOCC(=O)N[C@H](C(=O)N2C[C@H](O)C[C@H]2C(=O)NCc2ccc(-c3scnc3C)cc2)C(C)(C)C)C(C)(C)C)cc1 [CM10]; -0.8

(Q) Value lookup for −TΔS; key = Cc1ncsc1-c1ccc(CNC(=O)[C@@H]2C[C@@H](O)CN2C(=O)[C@@H](NC(=O)COCCOCCOCCOCCOCCOCC(=O)N[C@H](C(=O)N2C[C@H](O)C[C@H]2C(=O)NCc2ccc(-c3scnc3C)cc2)C(C)(C)C)C(C)(C)C)cc1 [CM11]
(A) 1.4

(Q) Value lookup for −TΔS; key = CC(=O)N[C@H](C(=O)N1C[C@H](O)C[C@H]1C(=O)NCc1ccc(-c2scnc2C)cc1OCCOCCOCCOCCOCCOc1cc(-c2scnc2C)ccc1CNC(=O)[C@@H]1C[C@@H](O)CN1C(=O)[C@@H](NC(C)=O)C(C)(C)C)C(C)(C)C [CMP106]
(A) 3.1

(Q) Value lookup for −TΔS; key = Cc1ncsc1-c1ccc(CNC(=O)[C@@H]2C[C@@H](O)CN2C(=O)[C@@H](NC(=O)COCCOCCOCCOCC(=O)N[C@H](C(=O)N2C[C@H](O)C[C@H]2C(=O)NCc2ccc(-c3scnc3C)cc2)C(C)(C)C)C(C)(C)C)cc1 [CM09]
(A) -3.5

(Q) Value lookup for −TΔS; key = Cc1ncsc1-c1ccc(CNC(=O)[C@H]2C[C@@H](O)CN2C(=O)[C@H](NC(=O)COCCOCCOCCOCCOCC(=O)N[C@H](C(=O)N2C[C@H](O)C[C@H]2C(=O)NCc2ccc(-c3scnc3C)cc2)C(C)(C)C)C(C)(C)C)cc1 [CMP99]
(A) -3.1
